Assay: Systemic exposure in human subjects after topical application
Details: in vivo, topical, 2 g of 3% or 6% by weight formulation (60 mg or 120 mg) over the joint area for one week
Endpoint Name: concentration at 1 week

Looking up CCCOc1ccc(-c2nc(-c3ccc4oc(C(N)(CO)CO)cc4c3)no2)cc1Cl , I see its concentration at 1 week listed as ≤ 2.5 ng/mL

* * *

Experiment: Topical treatment of psoriasis patients
Type: in vivo, human
Conditions: human, in vivo, 30 mg daily; after topical applications, below the limit of quantification; read-out: systemic exposure
Endpoint Name: concentration at 28 days

Looking up CCCOc1ccc(-c2nc(-c3ccc4oc(C(N)(CO)CO)cc4c3)no2)cc1Cl [compound of formula (I)] , I see its concentration at 28 days listed as < 0.4 ng/mL

* * *

Test: Topical treatment of arthritis patients with pain
Assay type: in vivo, human
Conditions: human, in vivo, topical, 60 mg daily, day 7, 60 mg daily topical; read-out: systemic exposure, average
Endpoint Name: concentration at 7 day (ng/mL)
Give bare numbers, in ng/mL.

Looking up CCCOc1ccc(-c2nc(-c3ccc4oc(C(N)(CO)CO)cc4c3)no2)cc1Cl , I see its concentration at 7 day listed as 0.79

* * *

Experiment: Topical treatment of arthritis patients with pain
Type: in vivo, human
Conditions: human, in vivo, topical, 60 mg daily, day 7, 60 mg daily topical; read-out: systemic exposure, range
Endpoint Name: concentration at 7 day

Looking up CCCOc1ccc(-c2nc(-c3ccc4oc(C(N)(CO)CO)cc4c3)no2)cc1Cl [compound of formula (I)] , I see its concentration at 7 day listed as 0.42 to 2.44 ng/mL

* * *

Test: Topical treatment of atopic dermatitis patients
Type: in vivo, human
Settings: human, in vivo; by week 3, 60 mg daily topical; read-out: systemic exposure
Endpoint Name: concentration at 3 week

Looking up CCCOc1ccc(-c2nc(-c3ccc4oc(C(N)(CO)CO)cc4c3)no2)cc1Cl , I see its concentration at 3 week listed as 1 to 2.5 ng/mL

* * *

Assay: Systemic exposure in human subjects after topical application
Settings: in vivo, 2 g daily of 3% ww formulation, 2 g daily topical 3% ww formulation for 3 weeks
Endpoint Name: concentration at 3 weeks

Looking up CCCOc1ccc(-c2nc(-c3ccc4oc(C(N)(CO)CO)cc4c3)no2)cc1Cl , I see its concentration at 3 weeks listed as ~2.5 ng/mL

Reference source: patent US20230094545A1
